Catalogue of melting point readings, one per entry.

A selection of reference data follows.
compound="Cc1cccc(C)c1NC(=O)CSc1nnc(C(C)c2ccc(CC(C)C)cc2)n1C (stereo not drawn)" quantity_measured="melting point" readout_value="150 to 152 °C"
compound="CC(C)Cc1ccc(C(C)c2nnc(SCC(=O)Nc3ccccc3Cl)n2C)cc1 (stereo not drawn)" quantity_measured="melting point" readout_value="123 to 125 °C"
compound="CCc1ccc(NC(=O)CSc2nnc(C(C)c3ccc(CC(C)C)cc3)n2C)cc1 (stereo not drawn)" quantity_measured="melting point" readout_value="100 to 102 °C"
compound="Cc1ccccc1NC(=O)CSc1nnc(C(C)c2ccc(CC(C)C)cc2)n1C (stereo not drawn)" quantity_measured="melting point" readout_value="122 to 124 °C"
compound="Cc1cc(Br)ccc1NC(=O)CSc1nnc(C(C)c2ccc(CC(C)C)cc2)n1C (stereo not drawn)" quantity_measured="melting point" readout_value="122 to 124 °C"

Lab note: next compound to report on.
Q: Dear colleague, please send me the reported melting point for CC(C)Cc1ccc(C(C)c2nnc(SCC(=O)Nc3ccccc3)n2C)cc1 (stereo not drawn) when you can.
Ans: 88 to 90 °C

* * *

Overview of reported inhibition at 12.5 µg/mL across a group of compounds:
System: HepG2 cell line
TEST PROTOCOL: MTT assay, cell viability against HepG2
Type: cell-based
PARTICULARS: Homo sapiens; 12.5 µg/mL, HepG2
API: value field is a number in %; no unit string.

Examples from the recorded data:
compound="CC(C)Cc1ccc(C(C)c2nnc(SCC(=O)Nc3ccccc3Cl)n2C)cc1 (stereo not drawn)" system_under_test="HepG2 cell line" unit_name=% readout_value=19.1
compound="Cc1cccc(C)c1NC(=O)CSc1nnc(C(C)c2ccc(CC(C)C)cc2)n1C (stereo not drawn)" system_under_test="HepG2 cell line" unit_name=% readout_value=34
compound="CCc1ccc(NC(=O)CSc2nnc(C(C)c3ccc(CC(C)C)cc3)n2C)cc1 (stereo not drawn)" system_under_test="HepG2 cell line" unit_name=% readout_value=19.1
compound="Cc1ccccc1NC(=O)CSc1nnc(C(C)c2ccc(CC(C)C)cc2)n1C (stereo not drawn)" system_under_test="HepG2 cell line" unit_name=% readout_value=27.7
compound="CC(C)Cc1ccc(C(C)c2nnc(SCC(=O)Nc3ccccc3)n2C)cc1 (stereo not drawn)" system_under_test="HepG2 cell line" unit_name=% readout_value=21

Now consider the entry below.
Q: Recall and state the measured inhibition at 12.5 µg/mL for Cc1cc(Br)ccc1NC(=O)CSc1nnc(C(C)c2ccc(CC(C)C)cc2)n1C (stereo not drawn) .
Ans: 25.2

* * *

Test system: HepG2 cell line
TEST PROTOCOL: MTT assay, cell viability against HepG2
Type: cell-based
PARTICULARS: Homo sapiens; 25 µg/mL, HepG2
QUANTITY MEASURED: inhibition at 25 µg/mL (%)
Express your answer in %, writing the number without its unit.

Here's what some known entries look like.
molecule="Cc1ccccc1NC(=O)CSc1nnc(C(C)c2ccc(CC(C)C)cc2)n1C (stereo not drawn)" quantity_measured="inhibition at 25 µg/mL" unit_name=% readout_value=64
molecule="Cc1cccc(C)c1NC(=O)CSc1nnc(C(C)c2ccc(CC(C)C)cc2)n1C (stereo not drawn)" quantity_measured="inhibition at 25 µg/mL" unit_name=% readout_value=85.9
molecule="CC(C)Cc1ccc(C(C)c2nnc(SCC(=O)Nc3ccccc3Cl)n2C)cc1 (stereo not drawn)" quantity_measured="inhibition at 25 µg/mL" unit_name=% readout_value=19.5
molecule="CC(C)Cc1ccc(C(C)c2nnc(SCC(=O)Nc3ccccc3)n2C)cc1 (stereo not drawn)" quantity_measured="inhibition at 25 µg/mL" unit_name=% readout_value=24
molecule="Cc1cc(Br)ccc1NC(=O)CSc1nnc(C(C)c2ccc(CC(C)C)cc2)n1C (stereo not drawn)" quantity_measured="inhibition at 25 µg/mL" unit_name=% readout_value=31.9

Here's the next entry for you.
Q: # return recorded inhibition at 25 µg/mL for entry CCc1ccc(NC(=O)CSc2nnc(C(C)c3ccc(CC(C)C)cc3)n2C)cc1 (stereo not drawn)
Ans: 22.8
